test: Toxicity in ip dosed mouse allografted with mouse P1534(J) cells administered from day 1 to day 9
Assay type: organism-based
conditionDescription: in vivo, read-out: MNTD
readoutLabel: MTD (mg/kg/day)
Give just the number in mg/kg/day; leave the unit off.

In: Would you mind telling me what MTD value was observed for CC[C@]1(O)C[C@@H]2CN(CCc3c([nH]c4ccccc34)[C@@](C(=O)OC)(c3cc4c(cc3OC)N(C)[C@H]3[C@@](O)(C(N)=O)[C@H](O)[C@]5(CC)C=CCN6CC[C@]43[C@@H]65)C2)C1.O=S(=O)(O)O [VINDESINE SULFATE] ?
Out: 0.25

In: Would you mind telling me what MTD value was observed for CC[C@]1(O)C[C@@H]2CN(CCc3c([nH]c4ccccc34)[C@@](C(=O)OC)(c3cc4c(cc3OC)N(C)[C@H]3[C@@](O)(C(=O)OC)[C@H](OC(C)=O)[C@]5(CC)C=CCN6CC[C@]43[C@@H]65)C2)C1.O=S(=O)(O)O [VINBLASTINE SULFATE] ?
Out: 0.35

In: Would you mind telling me what MTD value was observed for CC[C@]1(O)C[C@H]2CN(CCc3c([nH]c4ccccc34)[C@@](C(=O)OC)(c3cc4c(cc3OC)N(C)[C@H]3[C@@](O)(C(=O)OC)[C@H](O)[C@]5(CC)C=CCN6CC[C@]43[C@@H]65)C2)C1.O=S(=O)(O)O ?
Out: 0.2

In: Would you mind telling me what MTD value was observed for CC[C@]1(O)C[C@H]2CN(CCc3c([nH]c4ccccc34)[C@@](C(=O)OC)(c3cc4c(cc3OC)N(C=O)[C@H]3[C@@](O)(C(=O)OC)[C@H](OC(C)=O)[C@]5(CC)C=CCN6CC[C@]43[C@@H]65)C2)C1.O=S(=O)(O)O [VINCRISTINE SULFATE] ?
Out: 0.25

* * *

test: Toxicity in ip dosed mouse allografted with mouse p388 cells administered from day 1 to day 9
Type: organism-based
conditionDescription: in vivo, read-out: MNTD
readoutLabel: MTD (mg/kg/day)
Give just the number in mg/kg/day; leave the unit off.

In: Would you mind telling me what MTD value was observed for CC[C@]1(O)C[C@@H]2CN(CCc3c([nH]c4ccccc34)[C@@](C(=O)OC)(c3cc4c(cc3OC)N(C)[C@H]3[C@@](O)(C(=O)OC)[C@H](OC(C)=O)[C@]5(CC)C=CCN6CC[C@]43[C@@H]65)C2)C1.O=S(=O)(O)O [VINBLASTINE SULFATE] ?
Out: 0.9

In: Would you mind telling me what MTD value was observed for CC[C@]1(O)C[C@@H]2CN(CCc3c([nH]c4ccccc34)[C@@](C(=O)OC)(c3cc4c(cc3OC)N(C)[C@H]3[C@@](O)(C(N)=O)[C@H](O)[C@]5(CC)C=CCN6CC[C@]43[C@@H]65)C2)C1.O=S(=O)(O)O [VINDESINE SULFATE] ?
Out: 0.9

In: Would you mind telling me what MTD value was observed for CC[C@]1(O)C[C@H]2CN(CCc3c([nH]c4ccccc34)[C@@](C(=O)OC)(c3cc4c(cc3OC)N(C=O)[C@H]3[C@@](O)(C(=O)OC)[C@H](OC(C)=O)[C@]5(CC)C=CCN6CC[C@]43[C@@H]65)C2)C1.O=S(=O)(O)O [VINCRISTINE SULFATE] ?
Out: 0.33

In: Would you mind telling me what MTD value was observed for CC[C@]1(O)C[C@H]2CN(CCc3c([nH]c4ccccc34)[C@@](C(=O)OC)(c3cc4c(cc3OC)N(C)[C@H]3[C@@](O)(C(=O)OC)[C@H](O)[C@]5(CC)C=CCN6CC[C@]43[C@@H]65)C2)C1.O=S(=O)(O)O ?
Out: 0.6

* * *

test: Toxicity in ip dosed mouse allografted with mouse p388 cells after 1 day
Assay type: organism-based
conditionDescription: in vivo, read-out: MNTD
For each record, write down the corresponding MTD at 24 h.
Give just the number in mg/kg/day; leave the unit off.

In: Would you mind telling me what MTD at 24 h value was observed for CC[C@]1(O)C[C@H]2CN(CCc3c([nH]c4ccccc34)[C@@](C(=O)OC)(c3cc4c(cc3OC)N(C=O)[C@H]3[C@@](O)(C(=O)OC)[C@H](OC(C)=O)[C@]5(CC)C=CCN6CC[C@]43[C@@H]65)C2)C1.O=S(=O)(O)O [VINCRISTINE SULFATE] ?
Out: 4

In: Would you mind telling me what MTD at 24 h value was observed for CC[C@]1(O)C[C@H]2CN(CCc3c([nH]c4ccccc34)[C@@](C(=O)OC)(c3cc4c(cc3OC)N(C)[C@H]3[C@@](O)(C(=O)OC)[C@H](O)[C@]5(CC)C=CCN6CC[C@]43[C@@H]65)C2)C1.O=S(=O)(O)O ?
Out: 9

In: Would you mind telling me what MTD at 24 h value was observed for CC[C@]1(O)C[C@@H]2CN(CCc3c([nH]c4ccccc34)[C@@](C(=O)OC)(c3cc4c(cc3OC)N(C)[C@H]3[C@@](O)(C(=O)OC)[C@H](OC(C)=O)[C@]5(CC)C=CCN6CC[C@]43[C@@H]65)C2)C1.O=S(=O)(O)O [VINBLASTINE SULFATE] ?
Out: 9

In: Would you mind telling me what MTD at 24 h value was observed for CC[C@]1(O)C[C@@H]2CN(CCc3c([nH]c4ccccc34)[C@@](C(=O)OC)(c3cc4c(cc3OC)N(C)[C@H]3[C@@](O)(C(N)=O)[C@H](O)[C@]5(CC)C=CCN6CC[C@]43[C@@H]65)C2)C1.O=S(=O)(O)O [VINDESINE SULFATE] ?
Out: 13.5

The values you see were collected from ChEMBL document CHEMBL3272325.
